Known melting point of a selection of molecules

Guide cases for melting point, answers given:
[[record]]
mol_smiles = "FC(F)(F)c1ccc2nccc(N3CCN(C(=S)NCc4ccccc4)CC3)c2c1"
test_result = "158 to 159 °C"

[[record]]
mol_smiles = "CCOc1cc2ncnc(N3CCN(C(=O)Nc4ccc(C#N)cc4)CC3)c2cc1OCC"
test_result = "186 to 187 °C"


As a next step, examine the molecule that follows.
Q. Need melting point, item `Cc1ccc2c(N3CCN(C(=O)Nc4ccc(Oc5ccccc5)cc4)CC3)ncnc2c1`
A. 184 to 185 °C

----------
Known melting point of a selection of compounds

Guide cases for melting point, answers given:
[[record]]
mol_smiles = "COc1cc2ncnc(N3CCN(C(=S)NCc4ccc(OC(F)(F)F)cc4)CC3)c2cc1OC"
metric = "melting point"
test_result = "131 to 132 °C"

[[record]]
mol_smiles = "COc1cc2ncnc(N3CCN(C(=O)Nc4ccc(I)cc4)CC3)c2cc1OC"
metric = "melting point"
test_result = "238 to 242 °C"

[[record]]
mol_smiles = "COc1cc2ncnc(N3CCN(C(=O)Nc4ccc(F)cc4F)CC3)c2cc1OC"
metric = "melting point"
test_result = "174 to 175 °C"


Q. Need melting point, item `COc1cc2ncnc(N3CCN(C(=S)Nc4ccc(S(=O)(=O)N5CCCCC5)cc4)CC3)c2cc1OC`
A. 149 to 150 °C

Q. Need melting point, item `COc1cc2ncnc(N3CCN(C(=O)NS(=O)(=O)c4ccccc4)CC3)c2cc1OC`
A. 98 to 100 °C

Q. Need melting point, item `COc1cc2ncnc(N3CCN(C(=O)Nc4ccc(C(F)(F)F)cc4)CC3)c2cc1OC`
A. 227 to 230 °C

Q. Need melting point, item `CCOc1cc2ncnc(N3CCN(C(=S)NCc4cccnc4)CC3)c2cc1OCC`
A. 90 to 92 °C

Q. Need melting point, item `COc1cc2ncnc(N3CCN(C(=O)Nc4ccsc4)CC3)c2cc1OC`
A. 239 to 241 °C

----------
# SYSTEM NAME: human β-PDGF receptor (Homo sapiens, UniProt P09619)
# Sequence (P09619 33-1106): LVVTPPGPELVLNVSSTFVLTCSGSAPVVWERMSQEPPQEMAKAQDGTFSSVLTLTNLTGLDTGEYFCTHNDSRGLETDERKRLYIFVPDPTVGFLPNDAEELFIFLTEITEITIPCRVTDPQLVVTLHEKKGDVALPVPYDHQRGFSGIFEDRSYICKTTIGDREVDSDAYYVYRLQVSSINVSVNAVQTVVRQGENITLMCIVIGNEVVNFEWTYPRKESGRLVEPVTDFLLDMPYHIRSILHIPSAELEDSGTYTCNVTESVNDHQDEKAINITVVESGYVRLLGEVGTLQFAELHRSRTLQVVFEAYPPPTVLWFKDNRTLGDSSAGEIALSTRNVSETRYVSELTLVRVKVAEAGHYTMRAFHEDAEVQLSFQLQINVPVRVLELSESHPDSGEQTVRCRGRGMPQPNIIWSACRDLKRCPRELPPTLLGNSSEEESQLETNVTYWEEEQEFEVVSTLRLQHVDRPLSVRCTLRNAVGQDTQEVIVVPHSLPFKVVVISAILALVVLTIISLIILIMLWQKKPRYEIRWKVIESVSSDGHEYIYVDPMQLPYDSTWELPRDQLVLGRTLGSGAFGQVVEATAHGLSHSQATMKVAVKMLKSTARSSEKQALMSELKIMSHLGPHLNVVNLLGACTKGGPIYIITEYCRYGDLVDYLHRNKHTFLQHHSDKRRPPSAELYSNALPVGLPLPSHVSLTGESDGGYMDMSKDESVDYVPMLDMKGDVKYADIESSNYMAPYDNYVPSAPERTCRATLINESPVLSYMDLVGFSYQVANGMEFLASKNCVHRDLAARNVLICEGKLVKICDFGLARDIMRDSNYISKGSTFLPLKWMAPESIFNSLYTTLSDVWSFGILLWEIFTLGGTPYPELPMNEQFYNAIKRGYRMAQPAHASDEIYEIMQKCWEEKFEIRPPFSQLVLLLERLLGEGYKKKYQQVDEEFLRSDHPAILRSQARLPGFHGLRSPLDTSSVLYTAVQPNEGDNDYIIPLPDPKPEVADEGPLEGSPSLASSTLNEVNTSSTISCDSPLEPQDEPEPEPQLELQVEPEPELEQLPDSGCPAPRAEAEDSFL
# ASSAY EXPLANATION: Inhibitory effect on phosphorylation of PDGF receptor
# ASSAY SETUP: CHO cells expressing human β-PDGF receptor
METRIC: pIC50
Recall that pIC50 is obtained by taking minus log10 of the concentration measured in molar.

Guide cases for pIC50, answers given:
[[record]]
mol_smiles = "COc1cc2ncnc(N3CCN(C(=S)Nc4cccc(C(C)=O)c4)CC3)c2cc1OC"
system_name = "human β-PDGF receptor (Homo sapiens, UniProt P09619)"
metric = "pIC50"
test_result = 6.40

[[record]]
mol_smiles = "COc1cc2ncnc(N3C[C@@H](C)N(C(=S)NCc4ccccc4)[C@@H](C)C3)c2cc1OC"
system_name = "human β-PDGF receptor (Homo sapiens, UniProt P09619)"
metric = "pIC50"
test_result = 6.42

[[record]]
mol_smiles = "COc1cc2ncnc(N3CCN(C(=S)NCc4ccc(C#N)cc4)CC3)c2cc1OC"
system_name = "human β-PDGF receptor (Homo sapiens, UniProt P09619)"
metric = "pIC50"
test_result = 6.30

[[record]]
mol_smiles = "COc1cc2ncnc(N3CCN(C(=S)NCCCc4ccccc4)CC3)c2cc1OC"
system_name = "human β-PDGF receptor (Homo sapiens, UniProt P09619)"
metric = "pIC50"
test_result = 6.34

[[record]]
mol_smiles = "COc1cc2ncnc(N3CCN(C(=S)NCc4cccnc4)CC3)c2cc1OC"
system_name = "human β-PDGF receptor (Homo sapiens, UniProt P09619)"
metric = "pIC50"
test_result = 6.66


Q. Could you share what pIC50 was measured for `COc1cc2ncnc(N3CCN(C(=O)NCc4ccc(OC(F)(F)F)cc4)CC3)c2cc1OC` , tested on human β-PDGF receptor (Homo sapiens, UniProt P09619)?
A. 5.86

Q. Could you share what pIC50 was measured for `COc1cc2ncnc(N3CCN(C(=O)Nc4ccc(Br)cc4)CC3)c2cc1OC` , tested on human β-PDGF receptor (Homo sapiens, UniProt P09619)?
A. 6.80

Q. Could you share what pIC50 was measured for `O=C(Nc1ccc(Oc2ccccc2)cc1)N1CCN(c2ncnc3ccc(F)cc23)CC1` , tested on human β-PDGF receptor (Homo sapiens, UniProt P09619)?
A. 6.48

Q. Could you share what pIC50 was measured for `COc1cc2ncnc(N3CCN(C(=S)Nc4ccc5c(c4)CCC5)CC3)c2cc1OC` , tested on human β-PDGF receptor (Homo sapiens, UniProt P09619)?
A. 6.17

----------
Known melting point of a selection of compounds

Guide cases for melting point, answers given:
[[record]]
mol_smiles = "CCOc1cc2c(N3CCN(C(=O)Nc4ccc(Oc5ccccc5)cc4)CC3)ncnc2cc1OC"
metric = "melting point"
test_result = "213 to 214 °C"

[[record]]
mol_smiles = "S=C(NCc1ccccc1)N1CCN(c2ncnc3cc(Cl)ccc23)CC1"
metric = "melting point"
test_result = "70 to 71 °C"

[[record]]
mol_smiles = "COc1cc2ncnc(N3CCN(C(=S)NCCc4ccccc4)CC3)c2cc1OC"
metric = "melting point"
test_result = "76 to 80 °C"

[[record]]
mol_smiles = "COc1cc2ncnc(N3CCN(C(=O)Nc4ccc(OC(F)(F)F)cc4)CC3)c2cc1OC"
metric = "melting point"
test_result = "204 to 205 °C"

[[record]]
mol_smiles = "O=C(Nc1ccc(Oc2ccccc2)cc1)N1CCN(c2ccnc3ccccc23)CC1"
metric = "melting point"
test_result = "145 to 146 °C"


Q. Need melting point, item `COc1cc2ncnc(N3CCN(C(=S)Nc4ccc(SC)cc4)CC3)c2cc1OC`
A. 214 to 216 °C

Q. Need melting point, item `COc1cc2ncnc(N3CCN(C(=S)NCc4ccccc4Cl)CC3)c2cc1OC`
A. 175 to 176 °C

Q. Need melting point, item `COc1cc2ncnc(N3CCN(C(=O)Nc4ccc(CN(C)C)cc4)CC3)c2cc1OC`
A. 213 to 215 °C

Q. Need melting point, item `COc1ccc(CNC(=O)N2CCN(c3ncnc4cc(OC)c(OC)cc34)CC2)cc1`
A. 147 to 148 °C

Q. Need melting point, item `CCCCOC(=O)c1ccc(NC(=O)N2CCN(c3ncnc4cc(OC)c(OC)cc34)CC2)cc1`
A. 226 to 227 °C

Q. Need melting point, item `Cl.Cl.S=C(NCc1cccnc1)N1CCN(c2ccnc3cc(Cl)ccc23)CC1`
A. 170 to 173 °C

Q. Need melting point, item `COc1cc2ncnc(N3CCN(C(=O)Nc4cccc(Cl)c4)CC3)c2cc1OC`
A. 223 to 224 °C

----------
METRIC: melting point

Q. Need melting point, item `COc1cccc2c(N3CCN(C(=O)Nc4ccc(C(C)=O)cc4)CC3)ncnc12`
A. 239 to 240 °C

Q. Need melting point, item `CCn1c(=O)[nH]c2cc3c(N4CCN(C(=O)Nc5ccc(Oc6ccccc6)cc5)CC4)ncnc3cc21`
A. 248 to 251 °C

Q. Need melting point, item `COc1cc2ncnc(N3CCN(C(=O)Nc4cccc(Br)c4)CC3)c2cc1OC`
A. 221 to 222 °C

Q. Need melting point, item `COc1cc2ncnc(N3CCN(C(=O)Nc4ccc([N+](=O)[O-])cc4)CC3)c2cc1OC`
A. 272 to 274 °C

Q. Need melting point, item `S=C(NCc1ccccc1)N1CCN(c2ncnc3cc4c(cc23)OCO4)CC1`
A. 176 to 177 °C

Q. Need melting point, item `COc1cc2ncnc(N3CCN(C(=S)NC(=O)c4ccc([N+](=O)[O-])cc4)CC3)c2cc1OC`
A. 103 to 105 °C

----------
Known melting point of a selection of compounds

Guide cases for melting point, answers given:
[[record]]
mol_smiles = "COc1cc2ncnc(N3CCN(C(=S)Nc4ccc(S(N)(=O)=O)cc4)CC3)c2cc1OC"
test_result = "172 to 180 °C"

[[record]]
mol_smiles = "CC(C)c1ccc(NC(=O)N2CCN(c3ncnc4ccc(I)cc34)CC2)cc1"
test_result = "211 to 212 °C"

[[record]]
mol_smiles = "Cc1ccc2ncnc(N3CCN(C(=S)NCc4cccnc4)CC3)c2c1"
test_result = "128 to 129 °C"


Q. Need melting point, item `COc1cc2ncnc(N3CCN(C(=S)Nc4ccc(SC(F)(F)F)cc4)CC3)c2cc1OC`
A. 128 to 131 °C

Q. Need melting point, item `COc1cc2ccnc(N3CCN(C(=O)Nc4ccc(Oc5ccccc5)cc4)CC3)c2cc1OC`
A. 178 to 179 °C

Q. Need melting point, item `COc1cc2nc(C)nc(N3CCN(C(=O)Nc4ccc(Oc5ccccc5)cc4)CC3)c2cc1OC`
A. 146 to 147 °C

Q. Need melting point, item `COc1cc2ncnc(N3CCN(C(=S)Nc4ccc5c(O)nnc(O)c5c4)CC3)c2cc1OC`
A. 153 to 155 °C

Q. Need melting point, item `COc1cc2ncnc(N3CCN(C(=S)NCC4CCCCC4)CC3)c2cc1OC`
A. 170 to 171 °C

Reference for the values: patent US6472391B2
